Biological target: HLA-A*01:01
Assay: IEDB peptide-MHC binding, purified MHC/direct/fluorescence; filed as Kd, often an IC50 or EC50 that approximates it; bounds were set here for any values at or beyond the usual limits of such assays
Conditions: source organism: Salmonella enterica subsp. enterica serovar Typhi

[
  {
    "Chain": "PSEDEQQGH",
    "Kd": "≥ 20 µM"
  }
]

====

Biological target: HLA-B*46:01
Assay: IEDB peptide-MHC binding, purified MHC/direct/fluorescence; filed as Kd, often an IC50 or EC50 that approximates it; bounds were set here for any values at or beyond the usual limits of such assays
Details: source organism: Influenza A virus (A/quail/Hong Kong/FY298/00(H9N2))
Quantity name: Kd

[
  {
    "Chain": "ALTLNTMTK",
    "Result value": "≥ 20 µM"
  }
]

====

Biological target: HLA-B*58:01
Experiment: IEDB peptide-MHC binding, purified MHC/direct/fluorescence; filed as Kd, often an IC50 or EC50 that approximates it; bounds were set here for any values at or beyond the usual limits of such assays
Details: source organism: Yellow fever virus
Quantity name: Kd

[
  {
    "Chain": "SSARYDVAL",
    "Experimental system": "HLA-B*58:01",
    "Result value": "≥ 20 µM"
  }
]

====

Biological target: HLA-B*57:01
Experiment: IEDB peptide-MHC binding, purified MHC/competitive/radioactivity; filed as Kd, often an IC50 or EC50 that approximates it; bounds were set here for any values at or beyond the usual limits of such assays
Details: source organism: Dengue virus 3 Martinique/1243/1999
Quantity name: Kd (nM)

[
  {
    "Chain": "SSSMRKTDWL",
    "Quantity name": "Kd",
    "Unit label": "nM",
    "Result value": 3140
  },
  {
    "Chain": "SASRAWNVWE",
    "Quantity name": "Kd",
    "Unit label": "nM",
    "Result value": 279
  }
]

====

Target: HLA-A*68:01
Experiment: IEDB peptide-MHC binding, purified MHC/competitive/radioactivity; filed as Kd, often an IC50 or EC50 that approximates it; bounds were set here for any values at or beyond the usual limits of such assays
Settings: source organism: Dengue virus 2 Jamaica/1409/1983
We begin with a simple list: items and their reported Kd.

[
  {
    "Chain": "ESNILDIDLR",
    "Unit label": "nM",
    "Kd": 160
  },
  {
    "Chain": "SIMKNTTNTR",
    "Unit label": "nM",
    "Kd": 139
  },
  {
    "Chain": "MTATPPGSR",
    "Unit label": "nM",
    "Kd": 18.4
  }
]

====

Molecular target: HLA-A*02:01
Test: IEDB peptide-MHC binding, purified MHC/competitive/fluorescence; filed as Kd, often an IC50 or EC50 that approximates it; bounds were set here for any values at or beyond the usual limits of such assays
Conditions: source organism: Hepatitis C virus subtype 1b
Quantity name: Kd (nM)

[
  {
    "Chain": "LLCPAGHAV",
    "Result value": 12.4
  }
]

====

Reported values of pKd for individual entries
Biological target: HLA-A*29:02
Test: IEDB peptide-MHC binding, purified MHC/competitive/radioactivity; filed as Kd, often an IC50 or EC50 that approximates it; bounds were set here for any values at or beyond the usual limits of such assays
Settings: source organism: Lymphocytic choriomeningitis virus (strain Armstrong)
pKd: −log10 of the molar value.

[
  {
    "Chain": "DSEEYHLLY",
    "Relation": "=",
    "pKd": 6.54
  },
  {
    "Chain": "QFIHFYREPV",
    "Relation": "≤",
    "pKd": 4.40
  },
  {
    "Chain": "QYVRSGKDHV",
    "Relation": "≤",
    "pKd": 4.15
  },
  {
    "Chain": "KTGESSRCY",
    "Relation": "=",
    "pKd": 5.36
  },
  {
    "Chain": "VKIPTHRHI",
    "Relation": "=",
    "pKd": 4.81
  }
]
